Give Thrombin at 100 μM % for every item shown.
# system.under.test: Thrombin, from Human Plasma (Homo sapiens, UniProt P00734)
# assay.name: Enzymatic assay, thrombin
Where a SMILES comes first, the peptide text is derived from it.

Prompt: What value of Thrombin at 100 μM % has been recorded for this entry: CCCC[C@@H]1NC(=O)[C@H]([C@@H](C)O)NC(=O)[C@@H]2CSSC[C@H](NC(=O)[C@H]([C@@H](C)CC)NC(=O)[C@@H]3CCCN3C(=O)[C@@H]3CCCN3C(=O)[C@H](CC(=O)O)NC(=O)[C@H](CO)NC1=O)C(=O)N[C@@H](Cc1ccc(O)cc1)C(=O)N1CCC[C@@H]1C(=O)N1CCC[C@H]1C(=O)N[C@@H](Cc1ccccc1)C(=O)N2 [Ex. 23] (HELM PEPTIDE1{F.C.T.[Nle].S.D.P.P.I.C.Y.[dP].P}$PEPTIDE1,PEPTIDE1,2:R3-10:R3|PEPTIDE1,PEPTIDE1,1:R1-13:R2$$$V2.0)
Completion: 0%

Prompt: Param item: CC[C@H](C)[C@@H]1NC(=O)[C@@H]2CCCN2C(=O)[C@@H]2CCCN2C(=O)[C@H](CC(=O)O)NC(=O)[C@H](CO)NC(=O)[C@H](CCCCN)NC(=O)[C@H]([C@@H](C)O)NC(=O)[C@@H]2CSSC[C@H](NC1=O)C(=O)N[C@@H](CO)C(=O)N1CCC[C@@H]1C(=O)N[C@@H](CC(=O)O)C(=O)N[C@@H](Cc1ccccc1)C(=O)N2 [Ex. 47] (HELM PEPTIDE1{F.C.T.K.S.D.P.P.I.C.S.[dP].D}$PEPTIDE1,PEPTIDE1,2:R3-10:R3|PEPTIDE1,PEPTIDE1,1:R1-13:R2$$$V2.0)
Completion: 0%

Prompt: Param item: CCCC[C@@H]1NC(=O)[C@@H]2CCCN2C(=O)[C@H]2CCCN2C(=O)[C@H](Cc2ccccc2Cl)NC(=O)[C@@H]2CSSC[C@H](NC1=O)C(=O)N[C@@H]([C@@H](C)O)C(=O)N[C@@H](C)C(=O)N[C@@H](CO)C(=O)N[C@@H]([C@@H](C)CC)C(=O)N1CCC[C@H]1C(=O)N1CCC[C@H]1C(=O)N[C@@H](CCC(N)=O)C(=O)N2 [Ex. 144] (HELM PEPTIDE1{[Nle].C.T.A.S.I.P.P.Q.C.[O=C([C@H](Cc1ccccc1Cl)N[*:1])[*:2]].[dP].P}$PEPTIDE1,PEPTIDE1,2:R3-10:R3|PEPTIDE1,PEPTIDE1,1:R1-13:R2$$$V2.0)
Completion: 3.6%

Prompt: Param item: CCCC[C@@H]1NC(=O)[C@@H]2CCCN2C(=O)[C@H]2CCCN2C(=O)[C@H](Cc2ccccc2Cl)NC(=O)[C@@H]2CSSC[C@H](NC1=O)C(=O)N[C@@H]([C@@H](C)O)C(=O)N[C@@H](C)C(=O)N[C@@H](CO)C(=O)N[C@@H]([C@@H](C)CC)C(=O)N1CCC[C@H]1C(=O)N1CCC[C@H]1C(=O)N[C@@H](CCC(N)=O)C(=O)N2 [Ex. 96] (HELM PEPTIDE1{[Nle].C.T.A.S.I.P.P.Q.C.[O=C([C@H](Cc1ccccc1Cl)N[*:1])[*:2]].[dP].P}$PEPTIDE1,PEPTIDE1,2:R3-10:R3|PEPTIDE1,PEPTIDE1,1:R1-13:R2$$$V2.0)
Completion: 3.6%

###

# system.under.test: Coagulation Factor Xa, from uman plasma (Homo sapiens, UniProt P00742)
# Sequence (P00742 235-488 limits assumed): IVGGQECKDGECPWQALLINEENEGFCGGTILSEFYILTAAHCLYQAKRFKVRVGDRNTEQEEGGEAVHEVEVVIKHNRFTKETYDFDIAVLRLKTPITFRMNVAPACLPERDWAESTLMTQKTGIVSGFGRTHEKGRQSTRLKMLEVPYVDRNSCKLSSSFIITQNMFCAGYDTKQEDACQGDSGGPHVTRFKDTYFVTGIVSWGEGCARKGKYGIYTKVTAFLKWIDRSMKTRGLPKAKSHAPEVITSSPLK
# Sequence (P00742 41-179 limits assumed): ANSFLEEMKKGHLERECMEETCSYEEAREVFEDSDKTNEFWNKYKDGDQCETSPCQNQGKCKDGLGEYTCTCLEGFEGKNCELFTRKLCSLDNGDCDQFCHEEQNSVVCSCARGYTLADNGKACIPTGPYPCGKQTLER
# assay.name: Enzymatic assay, coagulation factor Xa
Where a SMILES comes first, the peptide text is derived from it.
Each record is given Yes if its reported FXa at 100 μM % is strictly below 6%. Records at or above 6% are given No.

Prompt: Does CCCC[C@@H]1NC(=O)[C@@H]2CCCN2C(=O)[C@H]2CCCN2C(=O)[C@H](Cc2ccc(O)cc2)NC(=O)[C@@H]2CSSC[C@H](NC1=O)C(=O)N[C@@H](C)C(=O)N[C@@H](C)C(=O)N[C@@H](CO)C(=O)N[C@@H]([C@@H](C)CC)C(=O)N1CCC[C@H]1C(=O)N1CCC[C@H]1C(=O)N[C@@H](CCC(N)=O)C(=O)N2 [Ex. 86] (HELM PEPTIDE1{[Nle].C.A.A.S.I.P.P.Q.C.Y.[dP].P}$PEPTIDE1,PEPTIDE1,2:R3-10:R3|PEPTIDE1,PEPTIDE1,1:R1-13:R2$$$V2.0) have FXa at 100 μM % strictly under 6%?
Completion: No

Prompt: Param item: CCCC[C@@H]1NC(=O)[C@@H]2CCCN2C(=O)[C@@H]2CCCN2C(=O)[C@H](CC(=O)O)NC(=O)[C@H](CO)NC(=O)[C@H](CCCCN)NC(=O)[C@H]([C@@H](C)O)NC(=O)[C@@H]2CSSC[C@H](NC1=O)C(=O)N[C@@H](CCCNC(=N)N)C(=O)N1CCC[C@@H]1C(=O)N1CCC[C@H]1C(=O)N[C@@H]([C@@H](C)CC)C(=O)N2 [Ex. 19] (HELM PEPTIDE1{I.C.T.K.S.D.P.P.[Nle].C.R.[dP].P}$PEPTIDE1,PEPTIDE1,2:R3-10:R3|PEPTIDE1,PEPTIDE1,1:R1-13:R2$$$V2.0)
Completion: No

Prompt: Param item: CCCC[C@@H]1NC(=O)[C@@H]2CCCN2C(=O)[C@H]2CCCN2C(=O)[C@H](Cc2ccc(O)cc2)NC(=O)[C@@H]2CSSC[C@H](NC1=O)C(=O)N[C@@H]([C@@H](C)O)C(=O)N[C@@H](C)C(=O)N[C@@H](CO)C(=O)N[C@@H](CC(C)(C)C)C(=O)N1CCC[C@H]1C(=O)N1CCC[C@H]1C(=O)N[C@@H](CCC(N)=O)C(=O)N2 [Ex. 85] (HELM PEPTIDE1{[Nle].C.T.A.S.[CC(C)(C)C[C@H](N[*:1])C(=O)[*:2]].P.P.Q.C.Y.[dP].P}$PEPTIDE1,PEPTIDE1,2:R3-10:R3|PEPTIDE1,PEPTIDE1,1:R1-13:R2$$$V2.0)
Completion: No

Prompt: Param item: CC[C@H](C)[C@@H]1NC(=O)[C@@H]2CCCN2C(=O)[C@@H]2CCCN2C(=O)[C@H](CC(=O)O)NC(=O)[C@H](CO)NC(=O)[C@H](CCCCN)NC(=O)[C@H]([C@@H](C)O)NC(=O)[C@@H]2CSSC[C@H](NC1=O)C(=O)N[C@@H](CO)C(=O)N1CCC[C@@H]1C(=O)N[C@@H](CC(=O)O)C(=O)N[C@@H](Cc1ccccc1)C(=O)N2 [Ex. 47] (HELM PEPTIDE1{F.C.T.K.S.D.P.P.I.C.S.[dP].D}$PEPTIDE1,PEPTIDE1,2:R3-10:R3|PEPTIDE1,PEPTIDE1,1:R1-13:R2$$$V2.0)
Completion: No

Prompt: Param item: CCCC[C@@H]1NC(=O)[C@H](CC(=O)O)NC(=O)[C@H]2CCCN2C(=O)[C@H](Cc2ccc(O)cc2)NC(=O)[C@@H]2CSSC[C@H](NC1=O)C(=O)N[C@@H]([C@@H](C)O)C(=O)N[C@@H](C)C(=O)N[C@@H](CO)C(=O)N[C@@H]([C@@H](C)CC)C(=O)N1CCC[C@H]1C(=O)N1CCC[C@H]1C(=O)N[C@@H](CCC(N)=O)C(=O)N2 [Ex. 121] (HELM PEPTIDE1{[Nle].C.T.A.S.I.P.P.Q.C.Y.[dP].D}$PEPTIDE1,PEPTIDE1,2:R3-10:R3|PEPTIDE1,PEPTIDE1,1:R1-13:R2$$$V2.0)
Completion: Yes

Prompt: Param item: C[C@@H]1NC(=O)[C@H]([C@@H](C)O)NC(=O)[C@@H]2CSSC[C@H](NC(=O)[C@H](CCC(N)=O)NC(=O)[C@@H]3CCCN3C(=O)[C@@H]3CCCN3C(=O)[C@H](CC3CCCCC3)NC(=O)[C@H](CO)NC1=O)C(=O)N[C@@H](CCC(N)=O)C(=O)N1CCC[C@@H]1C(=O)N1CCC[C@H]1C(=O)N[C@@H](CCc1ccccc1)C(=O)N2 [Ex. 158] (HELM PEPTIDE1{[O=C([C@H](CCc1ccccc1)N[*:1])[*:2]].C.T.A.S.[Cha].P.P.Q.C.Q.[dP].P}$PEPTIDE1,PEPTIDE1,2:R3-10:R3|PEPTIDE1,PEPTIDE1,1:R1-13:R2$$$V2.0)
Completion: Yes

Prompt: Param item: CCCC[C@@H]1NC(=O)[C@@H]2CCCN2C(=O)[C@H]2CCCN2C(=O)[C@H](Cc2ccccc2Cl)NC(=O)[C@@H]2CSSC[C@H](NC1=O)C(=O)N[C@@H]([C@@H](C)O)C(=O)N[C@@H](C)C(=O)N[C@@H](CO)C(=O)N[C@@H]([C@@H](C)CC)C(=O)N1CCC[C@H]1C(=O)N1CCC[C@H]1C(=O)N[C@@H](CCC(N)=O)C(=O)N2 [Ex. 96] (HELM PEPTIDE1{[Nle].C.T.A.S.I.P.P.Q.C.[O=C([C@H](Cc1ccccc1Cl)N[*:1])[*:2]].[dP].P}$PEPTIDE1,PEPTIDE1,2:R3-10:R3|PEPTIDE1,PEPTIDE1,1:R1-13:R2$$$V2.0)
Completion: Yes
